- assay-target: T1, C-terminally FLAG-tagged human Gas6 recombinant protein (hGas6-F) (human, UniProt Q14393 31-678, gamma-carboxylated glutamic acid residues in the Gla domain (producer cells co-express rat VKOR and human GGCX); positions not given)
- T1 construct: also called human Gas6-F; human Gas6 protein
- T1 sequence: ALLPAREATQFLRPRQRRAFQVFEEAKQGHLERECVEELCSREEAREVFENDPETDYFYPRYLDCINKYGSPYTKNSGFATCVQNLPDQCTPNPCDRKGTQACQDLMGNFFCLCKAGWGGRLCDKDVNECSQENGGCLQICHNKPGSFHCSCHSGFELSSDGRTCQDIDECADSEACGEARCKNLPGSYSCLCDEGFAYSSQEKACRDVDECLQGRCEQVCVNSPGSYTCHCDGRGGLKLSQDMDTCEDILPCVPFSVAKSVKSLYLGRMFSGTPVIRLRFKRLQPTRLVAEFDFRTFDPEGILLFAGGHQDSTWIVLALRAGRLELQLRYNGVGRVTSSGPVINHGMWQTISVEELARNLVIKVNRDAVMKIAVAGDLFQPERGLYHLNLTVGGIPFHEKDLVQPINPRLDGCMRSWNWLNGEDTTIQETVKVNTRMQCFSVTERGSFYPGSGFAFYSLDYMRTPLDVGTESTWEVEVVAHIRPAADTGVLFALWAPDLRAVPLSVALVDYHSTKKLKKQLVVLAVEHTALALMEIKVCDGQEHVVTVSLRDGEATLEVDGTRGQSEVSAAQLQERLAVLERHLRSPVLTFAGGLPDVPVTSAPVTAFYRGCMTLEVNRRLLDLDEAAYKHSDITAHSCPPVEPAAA
- method-summary: SPR Biacore T100, captured antibody, Gas6 analyte, first test
experimental-endpoint: Kd

INSERT INTO results (binder, experimental_endpoint, value_reported) VALUES
  ('hzKM5321 LV0HV7 antibody (antibody, V domains shown, Humanized; variant human IgG4 constant region (EU S228P, L235E, R409K), human kappa; also called B-12; LV0HV7) VH: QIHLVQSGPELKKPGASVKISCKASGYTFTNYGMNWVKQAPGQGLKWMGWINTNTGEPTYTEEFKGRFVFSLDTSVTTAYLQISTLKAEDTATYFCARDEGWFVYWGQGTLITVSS VL: ETTLTQSPSSLSASVGDRVTITCITSTDIDDDMNWYQQKPGKAPKLLISEGNTLRPGVPSRFSGSGSGTDFTLTISSLQPEDFATYYCLQTDSVPLTFGQGTKVEIK', 'Kd', '< 6.74 nM'),
  ('hzKM5321 LV6HV7 antibody (antibody, V domains shown, Humanized; variant human IgG4 constant region (EU S228P, L235E, R409K), human kappa; also called B-18; LV6HV7) VH: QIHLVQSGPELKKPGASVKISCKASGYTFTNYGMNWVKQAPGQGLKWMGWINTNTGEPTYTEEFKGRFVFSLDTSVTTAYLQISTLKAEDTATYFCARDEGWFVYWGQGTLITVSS VL: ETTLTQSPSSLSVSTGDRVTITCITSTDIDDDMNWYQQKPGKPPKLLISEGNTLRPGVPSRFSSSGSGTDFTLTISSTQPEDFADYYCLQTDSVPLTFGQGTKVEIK', 'Kd', '< 2.59 nM'),
  ('hzKM5321 LV6HV2a antibody (antibody, V domains shown, Humanized; variant human IgG4 constant region (EU S228P, L235E, R409K), human kappa; also called B-23; LV6HV2a) VH: QVHLVQSGSELKKPGASVKISCKASGYTFTNYGMNWVKQAPGQGLKWMGWINTNTGEPTYTEEFKGRFVFSLDTSVTTSYLQISTLKAEDTAVYFCARDEGWFVYWGQGTLVTVSS VL: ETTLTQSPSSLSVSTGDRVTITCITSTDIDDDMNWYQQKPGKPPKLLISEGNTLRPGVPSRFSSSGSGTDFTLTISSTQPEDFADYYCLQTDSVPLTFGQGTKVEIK', 'Kd', '< 2.07 nM'),
  ('hzKM5320 LV2bHV0 antibody (antibody, V domains shown, Humanized; variant human IgG4 constant region (EU S228P, L235E, R409K), human kappa; also called A-06) VH: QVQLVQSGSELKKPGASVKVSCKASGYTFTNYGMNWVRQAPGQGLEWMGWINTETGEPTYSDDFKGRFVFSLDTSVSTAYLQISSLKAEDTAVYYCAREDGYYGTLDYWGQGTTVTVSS VL: DVVMTQSPDSLAVSAGERVTINCKASQSVSNDVAWYQQKPGQSPKLLIYYASNRYTGVPDRFSGSGSGTDFTFTISSLQAEDVAVYYCQQDYSSPWTFGQGTKLEIK', 'Kd', '< 14.4 nM');

Attention now turns to another entry.
Challenge: Request the reported Kd associated with hzKM5321 LV7bHV7 antibody (antibody, V domains shown, Humanized; variant human IgG4 constant region (EU S228P, L235E, R409K), human kappa; also called B-20; LV7bHV7) VH: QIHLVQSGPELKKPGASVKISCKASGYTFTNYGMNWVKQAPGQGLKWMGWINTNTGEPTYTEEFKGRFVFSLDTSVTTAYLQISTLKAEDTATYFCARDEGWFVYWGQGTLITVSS VL: ETTVTQSPSSLSVSVGDRVTITCITSTDIDDDMNWYQQKPGKAPKLLISEGNTLRPGVPSRFSSSGSGTDFTFTISSTQPEDFADYYCLQTDSVPLTFGQGTKLEIK
Response given: < 3.07 nM

Where do these numbers come from? They come from patent US20180339041A1.
